biological target: PKMYT1 (Homo sapiens (Human)); assay: In vitro assay: kinase binding to immobilized ligand, captured kinase measured by qPCR
Sequence (Q99640 whole entry): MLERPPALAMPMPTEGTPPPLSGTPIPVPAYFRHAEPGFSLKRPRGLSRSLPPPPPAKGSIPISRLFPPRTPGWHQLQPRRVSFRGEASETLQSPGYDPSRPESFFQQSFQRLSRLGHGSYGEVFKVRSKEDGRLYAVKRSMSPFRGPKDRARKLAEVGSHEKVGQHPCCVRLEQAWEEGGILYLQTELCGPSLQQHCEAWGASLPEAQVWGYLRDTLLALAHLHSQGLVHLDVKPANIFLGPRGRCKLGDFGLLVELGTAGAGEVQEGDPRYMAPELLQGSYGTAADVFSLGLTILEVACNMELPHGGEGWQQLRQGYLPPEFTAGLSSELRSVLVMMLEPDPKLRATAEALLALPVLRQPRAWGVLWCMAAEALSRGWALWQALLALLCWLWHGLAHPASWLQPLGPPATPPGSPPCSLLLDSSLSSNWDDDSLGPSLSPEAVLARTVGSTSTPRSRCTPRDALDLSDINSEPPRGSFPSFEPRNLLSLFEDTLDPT
ENDPOINT: IC50

Consider the worked cases shown below.
• Cc1ccn2c(-c3c(C)ccc(O)c3C)c(N)c(C(N)=O)c2c1 [Compound 552] = 100 to 1000 nM
• Cc1ncc2c(C(N)=O)c(N)n(-c3c(C)c(O)cc(Cl)c3C)c2n1 [Compound 619] = < 50 nM
• Cc1ccc(O)c(C)c1-n1c(N)c(C(N)=O)c2cnc(NC(=O)[C@H]3CCCN3)nc21 [Compound 584] = 100 to 1000 nM
• Cc1ccc(O)c(C)c1-n1c(N)c(C(N)=O)c2c(C)ncc(F)c21 [Compound 582] = < 50 nM
• Cc1cnc2c(c1)c(C(N)=O)c(N)n2-c1c(C)ncc(O)c1C [Compound 561] = 50 to 100 nM
• Cc1ccc(O)c(C)c1-n1c(N)c(C(N)=O)c2cnc(N[C@@H]3CCC[C@@H]3O)nc21 (atropisomer, axis not shown) [Compound 591] = 50 to 100 nM
• Cc1ccc(O)c(C)c1-n1c(N)c(C(N)=O)c2cnc(NCCO)nc21 (single isomer, unassigned) [Compound 585] = > 1000 nM
• Cc1ccc(O)c(C)c1-n1c(N)c(C(N)=O)c2cnc(C3CC3)c(F)c21 [Compound 605] = < 50 nM
• Cc1cnc2c(c1)c(C(N)=O)c(N)n2-c1c(C)ccc2ocnc12 [Compound 553] = 100 to 1000 nM
• Cc1ccc(O)c(C)c1-n1c(N)c(C(N)=O)c2cnc(CCc3nccs3)c(F)c21 [Compound 649] = < 50 nM

Ask: Consider the molecule Cc1cn2c(C(N)=O)c(N)c(-c3c(C)ccc(O)c3C)c2cn1 [Compound 555] and give its measured IC50.
Reply: < 50 nM
